# Target system: Aspartate--tRNA(Asp/Asn) ligase (Mycobacterium tuberculosis (strain ATCC 25618 / H37Rv))
# Assay explanation: Assay for Asp RNA synthetase-1 from Mycobacterium tuberculosis
# Format: functional
# Parameters: scale not given: in the data most compounds retested in dose-response had high values
# Applied conditions: 30 µM

{"columns": ["Compound", "Percent Effect / %"],
 "data": [
  ["CS(=O)(=O)NCCCN1CCCC1c1ccccc1 (configuration not stated)", 2.4],
  ["CN(C)c1ccc(CCNC(=O)NCc2ccc(N(C)C)nc2)cc1", 2.84],
  ["CC(C)(C)N1CCCN(C(=O)c2csc(S(N)(=O)=O)c2)CC1", -2.95],
  ["CCc1ccc(C(=O)N2CCN(CC(C)O)CC2)o1 (configuration not stated)", 0.745],
  ["N#CCCCS(=O)(=O)N1CCCC1CC(=O)c1cccs1 (configuration not stated)", 0.747],
  ["O=C(O)[C@]12CCCN(Cc3ccccc3)C[C@H]1CN(c1ncccn1)C2", 6.32],
  ["Cn1cnc(-c2cc(C(=O)N3CCOCC3)c3ccccn23)c1", 1.18],
  ["CN(Cc1ccco1)C(=O)C1CSCN1C(=O)c1cccnc1 (configuration not stated)", 2.02],
  ["O=C(CN1CCCCC1Cn1cncn1)NCc1ccccn1 (configuration not stated)", 4.05],
  ["O=C(CCOc1ccccc1)N1CCC(Nc2cccnn2)CC1", 4.24],
  ["Cn1ccc(NC(=O)Cc2cccc(F)c2)n1", 3.36],
  ["CCNC(=O)N1CCC2(C1)c1ccccc1S(=O)(=O)N2CCC(C)C (configuration not stated)", -0.553]
]}
